test system: Human gammaherpesvirus 4; assay: Antiviral activity against EBV infected in human P3HR1 cells assessed as inhibition of lytic viral DNA replication after 48 hrs by RT-PCR analysis; type: functional, organism-based; conditions: human gammaherpesvirus 4, P3HR-1, 48 h
reported_metric: EC50 (µM)
One number for each entry, in µM.

COc1ccc([C@@H](O)[C@@H](C)Oc2ccc([C@H]3O[C@H](c4ccc(O[C@H](C)[C@H](O)c5ccc6c(c5)OCO6)c(OC)c4)[C@H](C)[C@H]3C)cc2OC)cc1OC [MANASSANTIN B] = 1.72
COc1cc([C@H]2O[C@@H](c3cc(OC)c4c(c3)OCO4)[C@H](C)[C@@H]2C)cc(OC)c1OC = 27.3

Shifting focus to the compound that follows.
State its EC50: COc1cc([C@H]2O[C@@H](c3cc(OC)c(OC)c(OC)c3)[C@H](C)[C@H]2C)cc(OC)c1OC [EPIGRANDISIN]
25
